# test_details: Half life in ICR mouse at 10 mg/kg, po administered as single dose
# Format: ADME, organism-based
# test_parameters: in vivo
quantity_name: half-life (h)
The reply should contain only the number, in h.

Q: # input compound: `CS(=O)(=O)CCc1c(Cn2c(=O)n(C3CC3)c3ccncc32)nc2cc(Cl)ccn12` ; wanted: its half-life
A: 1.73

###

# test_details: Clearance in ICR mouse at 2 mg/kg, iv or 10 mg/kg, po administered as single dose
# Format: ADME, organism-based
# test_parameters: in vivo
quantity_name: clearance (mL/min/kg)
// return numeric value only (unit: mL/min/kg, not printed)

Q: What value of measured clearance is listed for `CS(=O)(=O)CCc1c(Cn2c(=O)n(C3CC3)c3ccncc32)nc2cc(Cl)ccn12` ?
A: 93.3

###

Overview of recorded selectivity ratio for various molecules
# test_details: Therapeutic index, ratio of CC50 for cytotoxicity against human Hep2 cells to EC50 for antiviral activity against Respiratory syncytial virus Long infected in HEp-2 cells
# Format: toxicity, cell-based
# test_parameters: read-out: Ratio CC50/EC50

In the examples that follow, each entry is paired with its recorded selectivity ratio.
[[record]]
chemical_smiles = "CS(=O)(=O)CCCCn1c(CN2C(=O)C3(CC3)c3ccncc32)cc2cc(Cl)ccc21"
endpoint_value = "> 16700"

[[record]]
chemical_smiles = "CS(=O)(=O)CCn1c(CN2C(=O)C3(CC3)c3ccncc32)cc2c(C#N)cccc21"
endpoint_value = "> 106"


Now look at this entry.
Q: Tell me the measured selectivity ratio of `CS(=O)(=O)CCn1c(CN2C(=O)C3(CC3)c3ccncc32)cc2c(Cl)cccc21` , please.
A: > 60

###

CC50 at 144 h overview
# test_details: Cytotoxicity against human Hep2 cells assessed as reduction in cell viability after 6 days by MTT assay
# Assay type: cell-based
# test_parameters: HEp-2 cells

Here is how some molecules turned out for CC50 at 144 h.
[[record]]
chemical_smiles = "CS(=O)(=O)CCn1c(CN2C(=O)C3(CC3)c3cccnc32)cc2cc(Cl)ccc21"
endpoint_value = "> 100 µM"

[[record]]
chemical_smiles = "COc1cccc2c1cc(CN1C(=O)C3(CC3)c3ccncc31)n2CCS(C)(=O)=O"
endpoint_value = "> 100 µM"


# next molecule below
Q: What value of measured CC50 at 144 h is listed for `CS(=O)(=O)CCn1c(CN2C(=O)C3(CC3)c3ccncc32)cc2c(F)cccc21` ?
A: > 100 µM

###

# test_details: Cytotoxicity against human Hep2 cells assessed as reduction in cell viability after 6 days by MTT assay
# Assay type: cell-based
# test_parameters: HEp-2 cells
quantity_name: CC50 at 144 h (µM)
Just the number please, in µM, no unit attached.

Recorded results for 3 compounds are shown here.
[[record]]
compound = "C[S+]([O-])CCCn1c(CN2C(=O)C3(CC3)c3ccncc32)cc2cc(Cl)ccc21 (stereo unspecified)"
quantity_name = "CC50 at 144 h"
endpoint_value = 92.1

[[record]]
compound = "CS(=O)(=O)CCn1c(CN2C(=O)C3(CC3)c3ccncc32)cc2cc(Cl)ccc21"
quantity_name = "CC50 at 144 h"
endpoint_value = 67.4

[[record]]
compound = "CCc1cccc2c1cc(CN1C(=O)C3(CC3)c3ccncc31)n2CCS(C)(=O)=O"
quantity_name = "CC50 at 144 h"
endpoint_value = 86.8


Q: Name the recorded CC50 at 144 h for `CS(=O)(=O)CCn1c(CN2C(=O)C3(CC3)c3ccncc32)cc2nc(Cl)ccc21` .
A: 74.5

Q: Need CC50 at 144 h of CS(=N)(=O)CCn1c(CN2C(=O)C3(CC3)c3ccncc32)cc2cc(Cl)ccc21 (stereo unspecified) , thanks.
A: 78.3

Q: Requested field: CC50 at 144 h. Item: `CS(=O)(=O)CCn1c(CN2C(=O)C3(CC3)c3ccncc32)cc2ccc(Cl)cc21`
A: 59.7
